Source listed as patent US20230017045A1.

The following compounds are listed with their measured pest or weed control at 140 g/ha values.
tested on: test plant species; test: Post-emergent herbicidal activity test (greenhouse, foliar spray, visual growth reduction); assay type: in vivo; conditions: post-emergence, 336 h, wild oat (Avena fatua), 14 Days After Application, 140 g ai/ha, read-out: Visual Growth Reduction (%) AVEFA

Please review the following examples before continuing.
COC(=O)c1nc(-c2ccc(OS(C)(=O)=O)cc2F)c(F)cc1Cl; 30 to 44%
COc1cc(-c2nc(C(=O)O)c(Cl)cc2F)c(Cl)cc1C(F)(F)F; 0 to 29%
COC(=O)c1nc(-c2ccc(C(F)(F)F)cc2OC)ncc1Cl; 0 to 29%

q: # input compound: "COC(=O)c1nc(-c2cc3nonc3cc2F)c(Cl)cc1Cl" ; wanted: its pest or weed control at 140 g/ha
a: 0 to 29%

q: Which pest or weed control at 140 g/ha value belongs to "C=Cc1cc(-c2nc(C(=O)OC)c(Cl)cc2F)c(OC)c2c1OC(F)(F)O2" ?
a: 0 to 29%

q: Endpoint output: pest or weed control at 140 g/ha of "COC(=O)c1nc(-c2cc(F)c(Cl)c(OC)c2)ccc1Cl" . Value?
a: 0 to 29%

q: Which pest or weed control at 140 g/ha value is on record for "COC(=O)c1nc(-c2ccc(OC(F)F)cc2Cl)c(F)cc1Cl" ?
a: 60 to 74%

q: Recorded pest or weed control at 140 g/ha of "COC(=O)c1nc(-c2cc3c(cc2Cl)OC(F)(F)O3)ncc1Cl" , please.
a: 0 to 29%

---

The following molecules are listed with their measured pest or weed control at 140 g/ha values.
System: test plant species
Assay: Post-emergent herbicidal activity test (greenhouse, foliar spray, visual growth reduction)
Format: in vivo
Conditions: post-emergence, 336 h, ECHCG: barnyardgrass (Echinochloa crus-galli), 140 g ai/ha, 14 days after application, read-out: Visual Growth Reduction (%) 14 Days After Application, ECHCG
Description: Post-emergent Test: Seeds or nutlets of the desired test plant species were planted in Sun Gro Metro-Mix® 360 planting mixture, which typically has a pH of 6.0 to 6.8 and an organic matter content of about 30 percent, in plastic pots with a surface area of 64 square centimeters. In some aspects, to ensure good germination and healthy plants, a fungicide treatment and/or other chemical or physical treatment was applied. […]

Guide cases for pest or weed control at 140 g/ha, answers given:
C#Cc1cc(-c2ccc(C(F)(F)F)cc2Cl)nc(C(=O)OC)c1Cl [F40]; 0 to 29%
COC(=O)c1nc(-c2ccc(OCC(F)(F)F)cc2)c(F)cc1Cl [F163]; 0 to 29%

Please find the next molecule below.
q: // lookup pest or weed control at 140 g/ha for COC(=O)c1nc(-c2cc(F)c3c(c2)OC(F)(F)O3)ccc1Cl [F367]
a: 0 to 29%

---

# pest or weed control at 140 g/ha per record follows
tested on: test plant species; experiment: Post-emergent herbicidal activity test (greenhouse, foliar spray, visual growth reduction); type: in vivo; conditions: post-emergence, 336 h, ECHCG: barnyardgrass (Echinochloa crus-galli), 140 g ai/ha, 14 days after application, read-out: Visual Growth Reduction (%) 14 Days After Application, ECHCG

q: Please state recorded pest or weed control at 140 g/ha (tested on test plant species) of "COC(=O)c1nc(-c2cc(F)c(OC)cc2F)ccc1Cl"
a: 0 to 29%

q: Lab note: need pest or weed control at 140 g/ha for "C=Cc1cc(-c2nc(C(=O)O)c(Cl)cc2F)c(Cl)cc1C(F)(F)F" on test plant species, anyone have it?
a: 0 to 29%

q: Quick check: pest or weed control at 140 g/ha on test plant species, item "COC(=O)c1nc(-c2cc(C)c(C(F)(F)F)cc2F)ccc1Cl" ?
a: 0 to 29%

---

Reported melting point values are given for each entry in this list.

Before answering, review these 5 worked examples.
COC(=O)c1nc(-c2ccc(C(F)(F)F)cc2Cl)cc(F)c1Cl; 127 to 128 °C
COC(=O)c1nc(-c2ccc(S(C)(=O)=O)cc2F)c(F)cc1Cl; 179 to 181 °C
COC(=O)c1nc(-c2ccc(C(F)(F)F)cc2Cl)cc(C)c1Cl; 61 to 63 °C
COc1ncc(Cl)cc1-c1ccc(Cl)c(C(=O)O)n1; 155.2 to 163.3 °C
COC(=O)c1nc(-c2ccc(C(F)(F)F)cc2Cl)c(F)c(OC)c1Cl; 65 to 67 °C

q: State the recorded melting point for this entry: "O=C(OCc1ccccc1)c1nc(-c2ccc(C(F)(F)F)cc2Cl)ccc1Cl"
a: 56 to 57 °C

q: Given "COC(=O)c1nc(-c2ccc(C(F)(F)F)nc2F)c(F)cc1Cl" , state its recorded melting point.
a: 84 to 86 °C

q: Which melting point reading was recorded for the compound "COC(=O)c1nc(-c2ccc(C(F)(F)F)cc2Cl)c(Cl)cc1Cl" ?
a: 85 to 86 °C

---

Tested on: test plant species
Assay: Post-emergent herbicidal activity test (greenhouse, foliar spray, visual growth reduction)
Type: in vivo
Conditions: post-emergence, 336 h, TRZAS: wheat, spring (Triticum aestivum), 140 g ai/ha, 14 days after application, read-out: Visual Growth Reduction (%) 14 Days After Application, TRZAS
Excerpt: Post-emergent Test: Seeds or nutlets of the desired test plant species were planted in Sun Gro Metro-Mix® 360 planting mixture, which typically has a pH of 6.0 to 6.8 and an organic matter content of about 30 percent, in plastic pots with a surface area of 64 square centimeters. In some aspects, to ensure good germination and healthy plants, a fungicide treatment and/or other chemical or physical treatment was applied. […]
Property: pest or weed control at 140 g/ha

O=C(O)c1nc(-c2c(Cl)cc(C(F)(F)F)cc2Cl)ccc1Cl; 60 to 74%
COC(=O)c1nc(-c2c(Cl)cc(C(F)(F)F)cc2Cl)ccc1Cl; 30 to 44%
COC(=O)c1nc(-c2ccc(C(F)F)cc2OC)c(F)cc1Cl; 0 to 29%
COc1c(Cl)ccc(-c2ccc(Cl)c(C(=O)O)n2)c1F; 0 to 29%

q: Report pest or weed control at 140 g/ha for "COC(=O)c1nc(-c2ccc(C(F)(F)F)cc2Br)c(F)cc1F" please.
a: 60 to 74%

q: What pest or weed control at 140 g/ha value was documented for this molecule, "COC(=O)c1nc(-c2ccc(C(C)=O)cc2Cl)ccc1Cl" ?
a: 0 to 29%

---

system: test plant species; assay: Post-emergent herbicidal activity test (greenhouse, foliar spray, visual growth reduction); format: in vivo; details: post-emergence, 336 h, canada thistle (Cirsium arvense), 14 Days After Application, 140 g ai/ha, read-out: Visual Growth Reduction (%) CIRAR
Property: pest or weed control at 140 g/ha

q: # get_value(readout= pest or weed control at 140 g/ha, system= test plant species) for COC(=O)c1nc(-c2ccc(C(F)(F)F)c(C)c2)c(F)cc1Cl [F309]
a: 0 to 29%

q: Provide the documented pest or weed control at 140 g/ha with test plant species as the system for COC(=O)c1nc(-c2ccc3ccsc3c2F)ccc1Cl [F260]
a: 0 to 29%

q: Tell me reported pest or weed control at 140 g/ha for CCOc1c(Cl)ccc(-c2ccc(Cl)c(C(=O)OC)n2)c1Cl [F276] , tested with test plant species.
a: 0 to 29%

q: Return pest or weed control at 140 g/ha measured with test plant species given this molecule: COC(=O)c1nc(-c2ccc(C3(C#N)CC3)cc2Cl)c(F)cc1Cl [F237]
a: 95 to 100%

q: Give test plant species pest or weed control at 140 g/ha for COC(=O)c1nc(-c2ccc(C(F)(F)F)cc2Cl)c(F)cc1F [F373]
a: 95 to 100%

---

test system: test plant species; experiment: Post-emergent herbicidal activity test (greenhouse, foliar spray, visual growth reduction); format: in vivo; details: post-emergence, 336 h, SETFA: giant foxtail (Setaria faberi), 140 g ai/ha, 14 days after application, read-out: Visual Growth Reduction (%) 14 Days After Application, SETFA
Property: pest or weed control at 140 g/ha

# count of solved cases: 5
COC(=O)c1nc(-c2ccc(-c3ccc(F)cc3)cc2Cl)ccc1Cl [F25]; 0 to 29%
COC(=O)c1nc(-c2ccc(C(F)(F)F)c(Br)c2Cl)c(F)cc1Cl [F341]; 85 to 94%
COC(=O)c1nc(-c2ccc(C=O)cc2Cl)ccc1Cl [F22]; 0 to 29%
O=C(OCc1cccc(C(F)(F)F)c1)c1nc(-c2ccc(C(F)(F)F)cc2Cl)ccc1Cl [F117]; 95 to 100%
COC(=O)c1nc(-c2ccc(OS(C)(=O)=O)cc2F)c(F)cc1Cl [F343]; 85 to 94%

q: // returns reported pest or weed control at 140 g/ha for input COC(=O)c1nc(-c2ccc(C(F)(F)F)c(F)c2F)ccc1Cl [F110]
a: 0 to 29%

q: Can you share its pest or weed control at 140 g/ha? I mean this compound: COC(=O)c1nc(-c2ccc(C(F)(F)F)cc2Cl)ccc1Br [F32]
a: 30 to 44%
